Reference source for all entries: patent US12178815B2

ASSAY_PROTOCOL: LATTE-2 plasma pharmacokinetics (trough concentrations)
Assay type: in vivo, human
EXPERIMENTAL_PARAMETERS: human, plasma, im, Week 48; four-week IM LA; read-out: geometric mean C0
MEASUREMENT_NAME: C0 at 48 week (ng/mL)
State the answer as a number, implicitly in ng/mL.

Form: molecule = `Cc1cc(/C=C/C#N)cc(C)c1Nc1ccnc(Nc2ccc(C#N)cc2)n1` ; C0 at 48 week = 94.6
